Target: T1, rat MuSK (rat, UniProt Q62838 22-494, limits assumed)
T1 construct: Coated on Biacore chip (200RU) or ELISA plate
T1 sequence (looked up): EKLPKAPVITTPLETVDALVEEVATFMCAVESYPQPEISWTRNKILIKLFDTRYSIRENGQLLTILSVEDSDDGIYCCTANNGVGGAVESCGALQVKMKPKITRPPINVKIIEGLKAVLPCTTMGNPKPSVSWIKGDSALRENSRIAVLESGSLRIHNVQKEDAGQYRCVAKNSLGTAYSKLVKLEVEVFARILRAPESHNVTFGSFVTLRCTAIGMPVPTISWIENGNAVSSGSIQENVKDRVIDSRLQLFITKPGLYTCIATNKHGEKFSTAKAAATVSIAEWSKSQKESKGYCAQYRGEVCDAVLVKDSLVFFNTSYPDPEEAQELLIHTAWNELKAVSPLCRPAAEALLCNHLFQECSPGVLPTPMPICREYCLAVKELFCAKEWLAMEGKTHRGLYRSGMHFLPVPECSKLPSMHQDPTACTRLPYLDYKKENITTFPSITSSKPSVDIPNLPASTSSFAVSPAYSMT
Assay: Biacore, MuSK on chip (200RU), 66.7 nM mAb, dissociation pH 7.4
Reported values of koff for individual entries
quantity: koff (s⁻¹)

>>> quantitative_readout("3B2g2m4 (antibody, human IgG1, V domains shown, human IgG1-LALA backbone; produced in HEK293 cells) VH: EVQLLESGGGLVQPGGSLRLSCAASGFTFSDYGMSWVRQAPGKGLEWVSAIPWQGGSTYYKESVKGRFTISRDNSKNTLYLQMNSLRAEDTAVYYCAKRSGRIAFGALDAWGQGTLVTVSS VL: QTVVTQEPSFSVSPGGTVTLTCGLSSGSVTSSNYPDWYQQTPGQAPRTLIYSTDSRHSGVPDRFSGSILGNKAALTITGAQADDESDYYCGLYSYSGSKNYVFGGGTKLTVL")
0.00196
>>> quantitative_readout("3B2g1m4 (antibody, human IgG1, V domains shown, human IgG1-LALA backbone; produced in HEK293 cells) VH: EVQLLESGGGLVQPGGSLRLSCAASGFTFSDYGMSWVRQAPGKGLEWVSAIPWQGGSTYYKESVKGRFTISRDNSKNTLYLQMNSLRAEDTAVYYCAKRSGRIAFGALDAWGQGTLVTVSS VL: QTVVTQEPSFSVSPGGTVTLTCGLSSGSVTSSNYPDWYQQTPGQAPRTLIYSTDSRHSGVPDRFSGSILGNKAALTITGAQADDESDYYCGLYMYSGSKNYVFGGGTKLTVL")
0.00192
>>> quantitative_readout("3B2g2m1 (antibody, human IgG1, V domains shown, human IgG1-LALA backbone; produced in HEK293 cells; also called MuSK agonist antibody 3B2g2m1; MuSK-mAb 3B2g2m1) VH: EVQLLESGGGLVQPGGSLRLSCAASGFTFSDYGMSWVRQAPGKGLEWVSAIPWSGGSTYYKESVKGRFTISRDNSKNTLYLQMNSLRAEDTAVYYCAKRSGRIAFGALDAWGQGTLVTVSS VL: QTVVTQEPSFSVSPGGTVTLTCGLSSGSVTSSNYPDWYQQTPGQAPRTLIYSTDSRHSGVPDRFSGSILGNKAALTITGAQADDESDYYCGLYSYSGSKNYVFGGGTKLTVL")
0.00193
>>> quantitative_readout("3B2g1m1 (antibody, human IgG1, V domains shown, human IgG1-LALA backbone; produced in HEK293 cells) VH: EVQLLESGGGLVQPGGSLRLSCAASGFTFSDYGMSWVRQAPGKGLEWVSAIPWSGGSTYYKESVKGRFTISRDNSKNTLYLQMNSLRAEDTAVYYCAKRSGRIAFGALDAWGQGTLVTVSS VL: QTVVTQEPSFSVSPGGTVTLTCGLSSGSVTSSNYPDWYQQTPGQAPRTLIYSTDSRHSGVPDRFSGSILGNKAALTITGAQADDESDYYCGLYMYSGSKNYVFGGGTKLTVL")
0.00192
